- Measured on: T1, FLAG-Mm_Fpr2 C-terminally fused to Renilla Luciferase 8 (mouse, UniProt O88536 1-351)
- T1 sequence (looked up): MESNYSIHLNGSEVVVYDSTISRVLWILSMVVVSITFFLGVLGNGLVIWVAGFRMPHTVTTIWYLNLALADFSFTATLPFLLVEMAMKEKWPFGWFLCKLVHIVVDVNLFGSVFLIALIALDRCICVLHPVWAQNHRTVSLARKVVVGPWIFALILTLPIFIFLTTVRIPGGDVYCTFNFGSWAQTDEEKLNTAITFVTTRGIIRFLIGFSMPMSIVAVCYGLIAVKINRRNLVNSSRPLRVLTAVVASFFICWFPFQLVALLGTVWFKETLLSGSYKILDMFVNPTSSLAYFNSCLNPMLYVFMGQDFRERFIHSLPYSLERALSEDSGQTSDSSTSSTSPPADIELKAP
- Test name: cell-based or functional assay
Where no end group is shown, it is not given here. [ ]: non-standard residue; d: D form. The star is where a group is joined. Palmitoyl = CCCCCCCCCCCCCCCC(=O)*; For = O=C*
Would you mind telling me the reported BRET of receptor-RLuc8 with Arrestin 3-YFP: Log EC50 (M) of each entry?
All answers are understood in log M, so give the number only.

Name the recorded BRET of receptor-RLuc8 with Arrestin 3-YFP: Log EC50 (M) for For-MLFK [fMet-Leu-Phe-Lys (fMLFK)] .
-4.79

Return reported BRET of receptor-RLuc8 with Arrestin 3-YFP: Log EC50 (M); argument: WKYMV[dM] (the last residue is the D form; the bought peptide is probably also an amide (surmise); source: bought: Tocris) [WKYMVm]
-7.46

Could you tell me which BRET of receptor-RLuc8 with Arrestin 3-YFP: Log EC50 (M) is on file for {Palmitoyl-Palmitoyl}-KIHKKGMIKS (Pal is printed twice; the text speaks of N-terminal palmitoylation as the last step of the synthesis; also called pepducin; source: synthetic peptide (Fmoc solid phase, purified by preparative RP-HPLC)) [F2Pal10 (Pal-Pal-KIHKKGMIKS)] ?
-6.58

For WKYMVM (synthetic hexapeptide, all L residues; also called L-enantiomer of WKYMVm; source: bought: Tocris) , what is its reported BRET of receptor-RLuc8 with Arrestin 3-YFP: Log EC50 (M)?
-6.59

Fill in the blank: the reported BRET of receptor-RLuc8 with Arrestin 3-YFP: Log EC50 (M) of For-Met-Leu-Phe [fMet-Leu-Phe (fMLF)] is ____.
-4.71

Recorded BRET of receptor-RLuc8 with Arrestin 3-YFP: Log EC50 (M) for For-MTPMRKINPLMKLIN [MCT-2 (Formyl-MTPMRKINPLMKLIN from Cytochrome b)] , please?
-10.3
